Residues, ends and D or L forms follow the SMILES beside them. *: point of attachment. Bz = O=C(c1ccccc1)*
Readout type: melting point

Incoming: Note melting point for the compound shown: O=C1CCC2CCC(=O)N12
Outgoing: 179 to 182 °C

Incoming: Give recorded melting point. CCCCCC[C@@H]1C(=O)O[C@H]1OC(=O)N(CCCCC)c1ccccc1Oc1ccccc1 (relative stereo)
Outgoing: 63.1 to 66.3 °C

Incoming: Give recorded melting point. CCOC(=O)C(CCc1ccccc1)(NC(C)=O)C(=O)OCC
Outgoing: 115 to 117 °C

Incoming: Answer with the recorded melting point of COc1ccc(-c2ccc3c(c2)CCC3=O)c2c1OCCO2 only.
Outgoing: 168 °C

Incoming: Report melting point for CCNC(=O)[C@H](C)NC(=O)[C@H](C)NC(=O)c1ccccc1 (Bz-Ala-Ala-NHEt)
Outgoing: 237 to 239 °C

----------
Readout type: melting point

Sample answers from the record:
1) S=c1ncc2ccccc2[nH]1    234 to 235 °C
2) O=C(O)c1cnn2c(C(F)F)cc(-c3ccc(C(F)(F)F)c(OCC(F)(F)F)c3)nc12    261 °C

Incoming: Identify melting point associated with the molecule Oc1ccc(-c2c(Cl)c3cc(O)ccc3n2Cc2ccc(OCCN3CCCCCC3)cc2)cc1
Outgoing: 196 to 198 °C

Incoming: Find the measured melting point of O=S(=O)(c1ccc(F)cc1)C(F)(F)C(F)(F)C(F)(F)C(F)(F)S(=O)(=O)c1ccc(F)cc1 and report it.
Outgoing: 126 to 127 °C

----------
Readout type: melting point

Previously resolved entries follow.
1. CNc1nc(-c2cccc(NC(=O)c3ccc4c(c3)OCO4)c2)c2cc(OC)c(OC)cc2n1    205 to 207 °C
2. CCCCn1nc2c(N)nc3ccccc3c2c1CCS(=O)(=O)CCC    169 to 171 °C
3. COc1c(N2CCC(NC3CC3)C(C)C2)c(F)c(N)c2c(=O)c(C(=O)O)cn(C3CC3)c12 (configuration not stated)    218 to 220 °C
4. O=c1cccc2nccncc1-2    145 to 147 °C
5. C#CC(=O)Oc1ccc(OCc2ccccc2)cc1    45 to 47.5 °C

Incoming: Answer with the recorded melting point of CSc1ccc(Cl)c(C(=O)Nc2ccc(-n3nc(C(F)(F)F)cc3C3CC3)cc2)c1 only.
Outgoing: 172 to 177 °C

Incoming: Please report melting point for the following compound: CC(C)Oc1ccccc1N1CCN(Cc2cccc(CC3NC(=O)NC3=O)c2)CC1 (configuration not stated)
Outgoing: 178 to 181 °C

Incoming: Answer with the recorded melting point for the compound listed here: Cc1ccc(C)n1-c1ccc(/C=C/C(=O)N(C)O)cc1
Outgoing: 143 to 145 °C

Incoming: Look up and state reported melting point for CCn1nnc(-c2cccc(-c3ccnc4c(-c5cc(C)cc(C)c5)cnn34)c2)n1
Outgoing: 65 °C

----------
# melting point per record follows

Solved entries:
1. CCOC(=O)N1CCc2nc3c(C(F)(F)F)cccc3c(C)c2CC1    136 °C
2. C=C(C(=O)c1ccc(OC)c(Cl)c1Cl)C1CCCC1    59 to 63 °C
3. CN1CC(CCCl)Cc2ncccc2C1=S (centres undefined)    110 to 120 °C
4. O=C1Cc2cc(F)ccc2N1c1ccc(F)cc1    135 to 140 °C
5. CCCCCCCCCCCCCCCCS(=O)(=O)Nc1cccc(C(=O)CBr)c1    92 to 95 °C

Incoming: Item CC(C)(C)OC(=O)NCC/C=C/c1cncnc1 : provide melting point
Outgoing: 54 to 55.5 °C

Incoming: Read off the recorded melting point for N#Cc1ccc(CC(NC(=O)C(Cc2ccccc2)S(=O)(=O)Nc2ccc3ccccc3c2)C(=O)N2CCCC2)cc1 (centres undefined)
Outgoing: 206 °C

Incoming: Return reported melting point. Input molecule: O=C(c1cccs1)c1cnn2c(-c3cccc(NC/C=C/c4ccc([N+](=O)[O-])cc4)c3)ccnc12
Outgoing: 163 to 166 °C

Incoming: Give the measured melting point for CC(=O)C(C)(C)Nc1nc(N)nc(O)c1[N+](=O)[O-]
Outgoing: 289 °C
